# Test protocol: Half life in BALB/c mice at 10 mg/kg, iv
# Format: ADME, organism-based
# Set-up: dose 10 mg/kg, route intravenous
# Measurement parameters: mouse, in vivo
Below, each entry is listed alongside its reported half-life.
Endpoint name: half-life (min)

> print(dat)
                                   compound  unit.string  quantitative.readout
1  CCC(C)NCCCn1c(Sc2cc(OC)ccc2I)nc2c(N)ncnc21 (configuration not stated)          min                    78
2  COc1ccc(I)c(Sc2nc3c(N)ncnc3n2CCCNC(C)C)c1          min                   252
